System: velvetleaf
Assay: Test A preemergence
Type: in vivo, Abutilon theophrasti
Settings: 500 g ai/ha, 0 to 100 scale where 0 is no effect and 100 is complete control
Assign labels as follows, please: Satisfied for Velvetleaf plant response rating below 80; Not satisfied for Velvetleaf plant response rating equal to or exceeding 80.

Determine if N#Cc1cnn(-c2c(C=O)cccc2Oc2ncc(Cl)cn2)c1 [Compound 237] shows Velvetleaf plant response rating strictly lower than 80.
Satisfied

Determine if N#Cc1cnn(-c2c(Oc3ncc(Cl)cn3)cccc2C(F)F)c1 [Compound 236] shows Velvetleaf plant response rating strictly lower than 80.
Not satisfied

Determine if N#Cc1cccc(Oc2ncc(Cl)cn2)c1-n1cc([N+](=O)[O-])cn1 [Compound 304] shows Velvetleaf plant response rating strictly lower than 80.
Satisfied

Determine if N#Cc1ccc(Oc2ncc(Cl)cn2)c(-n2cc(Br)cn2)c1 [Compound 213] shows Velvetleaf plant response rating strictly lower than 80.
Satisfied

Determine if FC(F)(F)c1cnn(-c2c(Cl)cccc2Oc2ncc(Br)cn2)c1 [Compound 168] shows Velvetleaf plant response rating strictly lower than 80.
Not satisfied

Determine if N#Cc1cccc(Oc2ncc(Cl)cn2)c1-n1cc(Br)cn1 [Compound 235] shows Velvetleaf plant response rating strictly lower than 80.
Satisfied

Determine if C#Cc1cnn(-c2ccccc2Oc2ncc(Cl)cn2)c1 [Compound 188] shows Velvetleaf plant response rating strictly lower than 80.
Not satisfied

---

Assign Plant response rating (0 to 100), Ryegrass, Italian to each entry below.
Test system: Italian ryegrass
Test: Test C postemergence
Assay type: in vivo, Lolium multiflorum
Conditions: 125 g ai/ha, postemergence
# respond with the number and nothing more

For FC(F)(F)c1cnn(-c2ccccc2Oc2ncc(Cl)cn2)c1 , what is its reported Plant response rating (0 to 100), Ryegrass, Italian?
20

For N#Cc1cccc(Oc2ncc(F)cn2)c1-n1cc(Cl)cn1 , what is its reported Plant response rating (0 to 100), Ryegrass, Italian?
0

For CCOc1cnn(-c2c(C#N)cccc2Oc2ncc(F)cn2)c1 , what is its reported Plant response rating (0 to 100), Ryegrass, Italian?
5

For CCOc1cnn(-c2c(C#N)cccc2Oc2ncc(Cl)cn2)c1 , what is its reported Plant response rating (0 to 100), Ryegrass, Italian?
35

---

Tested on: giant foxtail
Experiment: Test E preemergence
Assay type: in vivo, Setaria faberii
Details: 125 g ai/ha, scale 0 to 100, 0 no effect, 100 complete control
From the text: […]
PROPERTY_LABEL: Plant response rating, Foxtail, Giant
# respond with the number and nothing more

For N#Cc1cccc(Oc2ncc(Br)cn2)c1-n1cc(I)cn1 , what is its reported Plant response rating, Foxtail, Giant?
25

For CCOc1cnn(-c2c(C#N)cccc2Oc2ncc(F)cn2)c1 , what is its reported Plant response rating, Foxtail, Giant?
65

For N#Cc1cccc(Oc2ncc(Br)cn2)c1-n1cc(C(F)(F)F)cn1 , what is its reported Plant response rating, Foxtail, Giant?
100

For FC(F)(F)c1cnn(-c2c(Cl)cccc2Oc2ncc(Cl)cn2)c1 , what is its reported Plant response rating, Foxtail, Giant?
100

---

Tested on: wheat
Assay: Test A postemergence
Type: in vivo, Triticum aestivum
Conditions: 500 g ai/ha, 0 to 100 scale where 0 is no effect and 100 is complete control
Assign Plant response rating, Wheat to each entry below.
# respond with the number and nothing more

For O=Cc1cccc(Oc2ncc(Br)cn2)c1-n1cc(C(F)(F)F)cn1 , what is its reported Plant response rating, Wheat?
0

For FC(F)c1cccc(Oc2ncc(Br)cn2)c1-n1cc(I)cn1 , what is its reported Plant response rating, Wheat?
40

For FC(F)(F)c1cnn(-c2c(Cl)cccc2Oc2ncc(Cl)cn2)c1 , what is its reported Plant response rating, Wheat?
60

For N#Cc1cnn(-c2c(C=O)cccc2Oc2ncc(Cl)cn2)c1 , what is its reported Plant response rating, Wheat?
0

For O=Cc1cccc(Oc2ncc(F)cn2)c1-n1cc(Cl)cn1 , what is its reported Plant response rating, Wheat?
0

For O=Cc1cccc(Oc2ncc(Br)cn2)c1-n1cc(I)cn1 , what is its reported Plant response rating, Wheat?
0

For N#Cc1cccc(Oc2ncc(Cl)cn2)c1-n1cc(Br)cn1 , what is its reported Plant response rating, Wheat?
0

For CON=Cc1cccc(Oc2ncc(Cl)cn2)c1-n1cc(Br)cn1 , what is its reported Plant response rating, Wheat?
20

For Oc1cccc(Oc2ncc(Cl)cn2)c1-n1cc(Br)cn1 , what is its reported Plant response rating, Wheat?
0

For Clc1cnc(Oc2cccc(Br)c2-n2cc(Br)nn2)nc1 , what is its reported Plant response rating, Wheat?
70

For O=[N+]([O-])c1cnc(Oc2ccccc2-n2cc(Br)cn2)nc1 , what is its reported Plant response rating, Wheat?
0

For Fc1cccc(Oc2ncc(Cl)cn2)c1-n1cc(I)cn1 , what is its reported Plant response rating, Wheat?
60

For CC(=O)c1cccc(Oc2ncc(Cl)cn2)c1-n1cc(Br)cn1 , what is its reported Plant response rating, Wheat?
0

For Clc1cnc(Oc2cccc(-c3ccccc3)c2-n2cc(Br)cn2)nc1 , what is its reported Plant response rating, Wheat?
0

For FC(F)c1cnn(-c2ccccc2Oc2ncc(Br)cn2)c1 , what is its reported Plant response rating, Wheat?
60

For N#Cc1cnn(-c2c(C#N)cccc2Oc2ncc(I)cn2)c1 , what is its reported Plant response rating, Wheat?
10

For CCCOc1cnn(-c2c(C#N)cccc2Oc2ncc(Cl)cn2)c1 , what is its reported Plant response rating, Wheat?
90

For N#Cc1cccc(Oc2ncc(Cl)cn2)c1-n1cc(-n2ccc(C(F)(F)F)n2)cn1 , what is its reported Plant response rating, Wheat?
20

For N#Cc1cnn(-c2c(Oc3ncc(Cl)cn3)cccc2C(F)F)c1 , what is its reported Plant response rating, Wheat?
100

For O=Cc1cccc(Oc2ncc(Cl)cn2)c1-n1cc(C(F)(F)F)cn1 , what is its reported Plant response rating, Wheat?
0

---

Tested on: green foxtail
Test: Test D postemergence
Assay type: in vivo, Setaria viridis
Settings: Setaria viridis, post-emergence, 125 g ai/ha, scale 0 to 100 (0 no effect, 100 complete control), read-out: Plant response rating, Foxtail, Green
PROPERTY_LABEL: pest or weed control at 125 g/ha

For FC(F)(F)COc1cnn(-c2ccccc2Oc2ncc(Cl)cn2)c1 [Compound 138] , what is its reported pest or weed control at 125 g/ha?
30%

For N#Cc1cccc(Oc2ncc(Cl)cn2)c1-n1cc(C(F)(F)F)cn1 [Compound 58] , what is its reported pest or weed control at 125 g/ha?
65%

For FC(F)(F)c1cn(-c2ccccc2Oc2ncc(Cl)cn2)nn1 [Compound 166] , what is its reported pest or weed control at 125 g/ha?
35%

For Fc1cccc(Oc2ncc(Cl)cn2)c1-n1cc(Br)cn1 [Compound 178] , what is its reported pest or weed control at 125 g/ha?
35%

---

Assign Plant response rating, Blackgrass to each entry below.
System: blackgrass
Experiment: Test A postemergence
Assay type: in vivo, Alopecurus myosuroides
Conditions: 1000 g ai/ha, 0 to 100 scale, 0 no effect, 100 complete control

For CC(C)(C)NS(=O)(=O)c1cnn(-c2ccccc2Oc2ncc(Cl)cn2)c1 , what is its reported Plant response rating, Blackgrass?
10

For CN(C)C(=O)c1cccc(Oc2ncc(Cl)cn2)c1-n1cc(C(F)(F)F)cn1 , what is its reported Plant response rating, Blackgrass?
10

For NC(=O)c1cnn(-c2ccccc2Oc2ncc(Cl)cn2)c1 , what is its reported Plant response rating, Blackgrass?
0

For CNC(=O)c1cccc(Oc2ncc(Cl)cn2)c1-n1cc(C(F)(F)F)cn1 , what is its reported Plant response rating, Blackgrass?
10

For CCN(C)C(=O)c1cccc(Oc2ncc(Cl)cn2)c1-n1cc(C(F)(F)F)cn1 , what is its reported Plant response rating, Blackgrass?
10

---

Tested on: nightshade
Experiment: Test E preemergence
Format: in vivo, Solanum ptycanthum
Details: 125 g ai/ha, scale 0 to 100, 0 no effect, 100 complete control
Assign Plant response rating, Nightshade to each entry below.
# respond with the number and nothing more

For N#Cc1cccc(Oc2ncc(Br)cn2)c1-n1cc(I)cn1 , what is its reported Plant response rating, Nightshade?
0

For FC(F)(F)c1cnn(-c2ccccc2Oc2ncc(Cl)cn2)c1 , what is its reported Plant response rating, Nightshade?
100

For FC(F)(F)c1cnn(-c2c(Cl)cccc2Oc2ncc(Cl)cn2)c1 , what is its reported Plant response rating, Nightshade?
100

For Fc1cccc(Oc2ncc(Cl)cn2)c1-n1cc(I)cn1 , what is its reported Plant response rating, Nightshade?
95

For FCc1cccc(Oc2ncc(Cl)cn2)c1-n1cc(Cl)cn1 , what is its reported Plant response rating, Nightshade?
98

For N#Cc1cnn(-c2c(CF)cccc2Oc2ncc(F)cn2)c1 , what is its reported Plant response rating, Nightshade?
90

For Clc1cnc(Oc2ccccc2-n2cc(Br)cn2)nc1 , what is its reported Plant response rating, Nightshade?
98
